Below is a list of entries, each paired with its recorded inhibition in vivo at 25 mg/kg value.
System: Rattus norvegicus
Assay: In vivo inhibitory activity against fluid in reverse passive Arthus reaction (RPAR) assay at dose 25 mg/kg in the pleural cavity of rats.
Type: functional
All answers are understood in %, so give the number only.

Completed entries (count: 10):
Compound	inhibition in vivo at 25 mg/kg / %
CC1(C)C(=O)N(c2cc(Cl)cc(Cl)c2)c2ncccc21	33
CC1(C)C(=O)Nc2ncccc21	38
CN1C(=O)C(C)(C)c2cccnc21	53
CC1(C)C(=O)N(Cc2ccc(Cl)cc2)c2ncccc21	0
CC1(Cc2ccccc2)C(=O)N(c2ccccc2)c2ncccc21 (centres undefined)	0
C[S+]([O-])c1ccc(N2C(=O)C(C)(C)c3cccnc32)cc1 (centres undefined)	0
COCCSC1(C)C(=O)N(c2ccccc2)c2ncccc21 (centres undefined)	23
CC1(C)C(=O)N(Cc2ccccc2)c2ncccc21	12
CC(C)c1ccc(N2C(=O)C(C)(C)c3cccnc32)cc1	6
CC1(Sc2ccccc2)C(=O)N(c2ccccc2)c2ncccc21 (centres undefined)	0

Query :: If you can, please state the reported inhibition in vivo at 25 mg/kg value of CCC1(CC)C(=O)N(c2ccccc2)c2ncccc21 .
Result :: 0

Query :: Which inhibition in vivo at 25 mg/kg value is on record for CC1(C)C(=O)N(c2ccc(Cl)cc2)c2ncc(Br)cc21 ?
Result :: 0

Query :: Field request: inhibition in vivo at 25 mg/kg | item: CC1(C)C(=O)N(c2ccc(S(C)(=O)=O)cc2)c2ncccc21
Result :: 0

Query :: Returns the measured inhibition in vivo at 25 mg/kg for the input compound. Input: CC1(C)C(=O)N(c2ccc(Cl)cc2Cl)c2ncccc21
Result :: 8

Query :: Value lookup for inhibition in vivo at 25 mg/kg; key = Cc1c(Cl)cccc1N1C(=O)C(C)(C)c2cccnc21
Result :: 0

Query :: Which inhibition in vivo at 25 mg/kg is reported for this compound? CC1C(=O)N(c2ccccc2)c2ncccc21 (centres undefined)
Result :: 18

Query :: Need inhibition in vivo at 25 mg/kg of CC1(C)C(=O)N(c2cccc(C(F)(F)F)c2)c2ncccc21 , thanks.
Result :: 10

Query :: So what does the record say about inhibition in vivo at 25 mg/kg for CC1(C)C(=O)N(c2cccc(Cl)c2)c2ncccc21 ?
Result :: 49

---

Tested on: Rattus norvegicus
Experiment: In vivo antiinflammatory activity against edema formation in the noninjected(secondary) paw of the rat (before edema stimulation) at dose 25 mg/kg
Format: functional
Measurement label: inhibition in vivo at 25 mg/kg
# include the unit after the value

Check out these entries, answers already filled in.
Item smiles	Target desc	inhibition in vivo at 25 mg/kg
CC1(C)C(=O)N(c2ccccc2)c2ncccc21	Rattus norvegicus	24%
COc1ccc(N2C(=O)C(C)(C)c3cccnc32)cc1	Rattus norvegicus	0%
CC1(C)C(=O)N(c2cccc(Cl)c2)c2ncccc21	Rattus norvegicus	31%
CC(C)(C(=O)[O-])c1cccnc1Nc1ccc(Cl)cc1.[Na+]	Rattus norvegicus	34%
CC1(C)C(=O)N(c2ccc(Cl)cc2)c2ncccc21	Rattus norvegicus	65%

// switching to the query compound
Query :: Entry under review: CC1(C)C(=O)N(c2ccc(F)cc2)c2ncccc21 . Reported inhibition in vivo at 25 mg/kg?
Result :: 48%

---

# key: entry, value: inhibition
Molecular target: Polyunsaturated fatty acid 5-lipoxygenase (Homo sapiens) (UniProt P09917)
Sequence (P09917 whole entry): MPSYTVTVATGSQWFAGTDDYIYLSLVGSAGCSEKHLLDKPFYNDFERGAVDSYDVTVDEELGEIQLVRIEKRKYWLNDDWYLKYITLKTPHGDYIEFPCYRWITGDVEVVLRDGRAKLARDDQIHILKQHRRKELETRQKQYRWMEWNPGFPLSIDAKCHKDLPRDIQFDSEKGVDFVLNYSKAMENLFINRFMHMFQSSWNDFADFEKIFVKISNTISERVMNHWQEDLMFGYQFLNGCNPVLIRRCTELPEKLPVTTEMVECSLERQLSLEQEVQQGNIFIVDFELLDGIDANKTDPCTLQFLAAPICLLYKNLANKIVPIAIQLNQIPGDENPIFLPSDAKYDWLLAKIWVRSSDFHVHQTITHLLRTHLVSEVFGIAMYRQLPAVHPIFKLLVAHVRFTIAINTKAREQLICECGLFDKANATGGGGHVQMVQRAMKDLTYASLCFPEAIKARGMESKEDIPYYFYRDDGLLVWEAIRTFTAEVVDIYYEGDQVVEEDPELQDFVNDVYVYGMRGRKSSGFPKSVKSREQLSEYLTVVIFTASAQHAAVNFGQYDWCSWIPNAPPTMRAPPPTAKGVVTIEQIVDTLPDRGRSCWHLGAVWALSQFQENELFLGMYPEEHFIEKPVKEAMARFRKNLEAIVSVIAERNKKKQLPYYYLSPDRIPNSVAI
Test: In vitro inhibitory activity against 5-lipoxygenase in human polymorphonuclear (PMN) cells
Settings: concentration not given here
Please state the figure in %; there is no need to write the unit.

The following compounds have reported results that may help.
Compound	Target desc	inhibition / %
CC1(C)C(=O)N(Cc2ccccc2)c2ncccc21	Polyunsaturated fatty acid 5-lipoxygenase (Homo sapiens) (UniProt P09917)	2
CC1(C)C(=O)N(c2cccc(Cl)c2)c2ncccc21	Polyunsaturated fatty acid 5-lipoxygenase (Homo sapiens) (UniProt P09917)	3
CC1(C)C(=O)N(c2ccc(Cl)cc2)c2ncccc21	Polyunsaturated fatty acid 5-lipoxygenase (Homo sapiens) (UniProt P09917)	13

Query :: I'd like to know its inhibition. The compound in question is CC1(F)C(=O)N(c2ccccc2)c2ncccc21 (configuration not stated)
Result :: 0

Query :: What does the record list as inhibition for CC1(C)C(=O)N(c2ccc(S(C)(=O)=O)cc2)c2ncccc21 ?
Result :: 13

Query :: Data request, read-out inhibition, for COCCSC1(C)C(=O)N(c2ccccc2)c2ncccc21 (configuration not stated)
Result :: 0

---

Test system: Rattus norvegicus
Experiment: In vivo inhibitory activity against cells in reverse passive Arthus reaction (RPAR) assay at dose 25 mg/kg in the pleural cavity of rats.
Type: functional
Measurement label: ED50 (mg/kg)
Numbers only here, please. The scale is mg/kg.

Here are 2 molecules together with their reported answers.
Item smiles	Val
CC1(C)C(=O)N(c2ccc(F)cc2)c2ncccc21	4.5
CC1(C)C(=O)N(c2ccccc2)c2ncccc21	21.9

Query :: Lab note: need ED50 with Rattus norvegicus for entry CC(C)(C(=O)[O-])c1cccnc1Nc1ccc(Cl)cc1.[Na+] , please look it up.
Result :: 11.3

Query :: Item CC1(C)C(=O)N(c2ccc(Cl)cc2)c2ncccc21 with Rattus norvegicus - ED50?
Result :: 4.5

---

System: Rattus norvegicus
Test: In vivo inhibitory activity against fluid in reverse passive Arthus reaction (RPAR) assay at dose 25 mg/kg in the pleural cavity of rats.
Format: functional
Reported ED50 values for a set of molecules
The reply should be a number in mg/kg, with the unit left off.

Item smiles	Target desc	ED50 / mg/kg
CC1(C)C(=O)N(c2ccccc2)c2ncccc21	Rattus norvegicus	35.1
CC(C)(C(=O)[O-])c1cccnc1Nc1ccc(Cl)cc1.[Na+]	Rattus norvegicus	9.6

Query :: Give ED50 (Rattus norvegicus) of the following molecule: CC1(C)C(=O)N(c2ccc(Cl)cc2)c2ncccc21
Result :: 27.9

Query :: Rattus norvegicus / ED50 / CC1(C)C(=O)N(c2ccc(F)cc2)c2ncccc21 : value?
Result :: 29.5

---

Listing: inhibition of selected compounds
Biological target: Cyclooxygenase (Homo sapiens) (UniProt P35354+P23219)
Test: In vitro inhibitory activity against Prostaglandin G/H synthase in human platelets
Parameters: concentration or dose not given beside the values
Conditions: concentration not given here
Entry rule: numbers only, all in %.

Item smiles	inhibition, %
CC1(C)C(=O)N(c2ccc(Cl)c(Cl)c2)c2ncccc21	0

Lab note: next compound to report on.
Query :: What value of inhibition has been reported for the following compound? CC1(C)C(=O)N(c2ccccc2)c2ncccc21
Result :: 0

---

Test system: Rattus norvegicus
Experiment: In vivo inhibitory activity against cells in reverse passive Arthus reaction (RPAR) assay at dose 25 mg/kg in the pleural cavity of rats.
Assay type: functional
Each entry below carries its recorded inhibition in vivo at 25 mg/kg.
Give just the number in %; leave the unit off.

Known inhibition in vivo at 25 mg/kg results, listed for orientation:
Compound	Target desc	inhibition in vivo at 25 mg/kg / %
CC1(C)C(=O)N(Cc2ccc(Cl)cc2)c2ncccc21	Rattus norvegicus	6
CC1(C)C(=O)N(c2cccc(C(F)(F)F)c2)c2ncccc21	Rattus norvegicus	35
CC1(C)C(=O)N(c2ccc(Br)cc2)c2ncccc21	Rattus norvegicus	46
COCCSC1(C)C(=O)N(c2ccccc2)c2ncccc21 (stereo unspecified)	Rattus norvegicus	26
CC1(C)C(=O)N(c2ccc(Cl)cc2)c2ccccc21	Rattus norvegicus	0
CC1(Cc2ccccc2)C(=O)N(c2ccccc2)c2ncccc21 (stereo unspecified)	Rattus norvegicus	9

Query :: What value of inhibition in vivo at 25 mg/kg has been reported for the following compound? CCCCC1(C)C(=O)N(c2ccccc2)c2ncccc21 (stereo unspecified)
Result :: 21

Query :: Please look up its inhibition in vivo at 25 mg/kg: CCC1(CC)C(=O)N(c2ccccc2)c2ncccc21
Result :: 13

Query :: Value lookup for inhibition in vivo at 25 mg/kg; key = Cc1c(Cl)cccc1N1C(=O)C(C)(C)c2cccnc21
Result :: 14

Query :: Suppose we examine the compound CC1(C)C(=S)N(c2ccc(Cl)cc2)c2ncccc21 ; what inhibition in vivo at 25 mg/kg value has been reported?
Result :: 41

Query :: Would you mind telling me what inhibition in vivo at 25 mg/kg value was observed for CC1C(=O)N(c2ccccc2)c2ncccc21 (stereo unspecified) ?
Result :: 29

Query :: Quick check: inhibition in vivo at 25 mg/kg of CSC1(C)C(=O)N(c2ccccc2)c2ncccc21 (stereo unspecified) ?
Result :: 34

Query :: Need inhibition in vivo at 25 mg/kg, item CC1(C)C(=O)N(c2cc(Cl)cc(Cl)c2)c2ncccc21
Result :: 49

Query :: Look up inhibition in vivo at 25 mg/kg for this compound: CSc1ccc(N2C(=O)C(C)(C)c3cccnc32)cc1
Result :: 29

Query :: Which inhibition in vivo at 25 mg/kg reading was recorded for the compound CC1(C)C(=O)N(c2cccc(Cl)c2)c2ncccc21 ?
Result :: 51

Query :: // lookup inhibition in vivo at 25 mg/kg for CC1(Sc2ccccc2)C(=O)N(c2ccccc2)c2ncccc21 (stereo unspecified)
Result :: 0

Query :: For the compound shown here, CC1(C)C(=O)N(c2ccc(S(C)(=O)=O)cc2)c2ncccc21 , give the reported inhibition in vivo at 25 mg/kg.
Result :: 42

Query :: Record request: inhibition in vivo at 25 mg/kg value, item CC1(C)C(=O)N(Cc2ccccc2)c2ncccc21
Result :: 12

Query :: Name the recorded inhibition in vivo at 25 mg/kg for CC1(C)C(=O)N(c2ccc(Cl)cc2)c2ncc(Br)cc21 .
Result :: 29

Query :: Would you kindly share the measured inhibition in vivo at 25 mg/kg for C[S+]([O-])c1ccc(N2C(=O)C(C)(C)c3cccnc32)cc1 (stereo unspecified) ?
Result :: 39

Query :: Would you kindly share the measured inhibition in vivo at 25 mg/kg for CC1(C)C(=O)N(c2ccccc2Cl)c2ncccc21 ?
Result :: 14

Query :: Recorded inhibition in vivo at 25 mg/kg for CC1(C)C(=O)N(c2ccc(Cl)cc2Cl)c2ncccc21 , please?
Result :: 16

Query :: Fill blank: measured inhibition in vivo at 25 mg/kg of the compound CC1(C)C(=O)Nc2ncccc21 is ____.
Result :: 46

Query :: I have this compound here, CC(C)N1C(=O)C(C)(C)c2cccnc21 , and I need its recorded inhibition in vivo at 25 mg/kg.
Result :: 34

Query :: Using the record for CC1(C)C(=O)N(c2ccc(Cl)c(Cl)c2)c2ncccc21 , report its inhibition in vivo at 25 mg/kg.
Result :: 26

Query :: inhibition in vivo at 25 mg/kg lookup needed for CC(C)c1ccc(N2C(=O)C(C)(C)c3cccnc32)cc1 , thanks.
Result :: 29

Query :: Returns the measured inhibition in vivo at 25 mg/kg for the input compound. Input: CC1(C)C(=O)N(c2ccc(F)cc2F)c2ncccc21
Result :: 61
